Origin of the recorded values: patent US20240025918A1

Tested on: AsPC-1
Assay: Cell growth inhibition assay, AsPC-1 (CellTiter-Glo)
Format: cell-based
Details: Homo sapiens, ASPC1, 144 h; AsPC-1 cell viability, 6 days incubation
IC50 strictly under 80 nM means t; at 80 nM or over means f.

Recorded results for 4 compounds are shown here.
>  <compound>
C#Cc1cccc2cc(O)cc(-c3c(F)cc4c(N5CC6CCC(C5)N6)nc(OCC5(CN6CCOC7(CC7)C6)CC5)nc4c3F)c12 (single isomer, unassigned)

>  <labelValue>
t

$$$$
>  <compound>
C#Cc1cccc2cc(O)cc(-c3c(F)cc4c(N5CC6CCC(C5)N6)nc(OCC5(CN6CCC7(CC6)CC7)CC5)nc4c3F)c12

>  <labelValue>
f

$$$$
>  <compound>
C#Cc1cccc2cc(O)cc(-c3ccc4c(N5CC6CCC(C5)N6)nc(OCC5(CN6CC(OC)C6)CC5)nc4c3F)c12

>  <labelValue>
f

$$$$
>  <compound>
C#Cc1cccc2cc(O)cc(-c3ccc4c(N5CC6CCC(C5)N6)nc(OCC5(CN6CC7CCCC7C6)CC5)nc4c3F)c12 (stereo not drawn)

>  <labelValue>
t

$$$$

Threshold test, IC50 < 80 nM: C#Cc1cccc2cc(O)cc(-c3c(F)cc4c(N5CC6CCC(C5)N6)nc(OCC5(CN6CCC7(CC6)CC7(F)F)CC5)nc4c3F)c12
t
